// reported inhibition at 10 µM for each item listed
testSystem: human PLK1 kinase domain (Homo sapiens, UniProt P53350)
Construct: Each reaction consisted of 30 nM enzyme PLK1 kinase domain
Sequence (P53350 53-305 limits assumed): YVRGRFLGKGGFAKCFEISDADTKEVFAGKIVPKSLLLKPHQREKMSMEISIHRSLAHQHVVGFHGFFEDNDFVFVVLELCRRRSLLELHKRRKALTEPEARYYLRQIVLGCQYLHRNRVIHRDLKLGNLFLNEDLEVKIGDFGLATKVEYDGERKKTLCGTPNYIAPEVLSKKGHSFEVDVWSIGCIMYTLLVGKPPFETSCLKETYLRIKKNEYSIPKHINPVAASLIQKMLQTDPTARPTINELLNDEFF
testName: In vitro PLK1 assay (IMAP fluorescence polarization kinase assay)
Format: biochemical
conditionDescription: at 10 uM compound
valueKind: inhibition at 10 µM (%)

• Cc1noc(NS(=O)(=O)c2ccc(Nc3cc(-c4ccccc4C(N)=O)ncn3)cc2)c1C = 0
• Cc1noc(NS(=O)(=O)c2ccc(Nc3cc(-c4ccccc4C(F)(F)F)ncn3)cc2)c1C = 96.1
• COc1cccc(OC)c1-c1cc(Nc2ccc(S(=O)(=O)Nc3onc(C)c3C)cc2)ncn1 = 10.1
• COc1cc(F)ccc1-c1cc(Nc2ccc(S(=O)(=O)Nc3onc(C)c3C)cc2)ncn1 = 63.3
• Cc1noc(NS(=O)(=O)c2ccc(Nc3cc(-c4ccc(F)cc4OC(C)C)ncn3)cc2)c1C = 68.8
• COc1ccc(C)cc1-c1cc(Nc2ccc(S(=O)(=O)Nc3onc(C)c3C)cc2)ncn1 = 67.6
• COc1ccc(F)c(F)c1-c1cc(Nc2ccc(S(=O)(=O)Nc3onc(C)c3C)cc2)ncn1 = 55.4
• COc1ccc(C(C)(C)C)cc1-c1cc(Nc2ccc(S(=O)(=O)Nc3onc(C)c3C)cc2)ncn1 = 26.1
• Cc1noc(NS(=O)(=O)c2ccc(Nc3cc(-c4c(F)cccc4OC(C)C)ncn3)cc2)c1C = 70.4

----------
human PLK1 kinase domain (Homo sapiens, UniProt P53350) log10(IC50) data
valueKind: log10(IC50) (log10 of the value in nM)

• CCc1ccccc1-c1cc(Nc2ccc(S(=O)(=O)Nc3onc(C)c3C)cc2)ncn1 [Example 20] = 2.98
• Cc1noc(NS(=O)(=O)c2ccc(Nc3cc(-c4cc(Cl)ccc4OC(C)C)ncn3)cc2)c1C [Example 24] = 3.57
• Cc1noc(NS(=O)(=O)c2ccc(Nc3cc(-c4cccc(N)c4)ncn3)cc2)c1C [Example 44] = 4.06
• COc1ccc(C)cc1-c1cc(Nc2ccc(S(=O)(=O)Nc3onc(C)c3C)cc2)ncn1 [Example 9] = 2.91
• Cc1noc(NS(=O)(=O)c2ccc(Nc3cc(-c4ccccc4OC(F)(F)F)ncn3)cc2)c1C [Example 2] = 2.84
• Cc1noc(NS(=O)(=O)c2ccc(Nc3cc(-c4ccc(F)cc4Cl)ncn3)cc2)c1C [Example 19] = 1.67
• CC(=O)Nc1ccc(-c2cc(Nc3ccc(S(=O)(=O)Nc4onc(C)c4C)cc3)ncn2)cc1 [Example 27] = 2.57

----------
testSystem: human PLK1 kinase domain (Homo sapiens)
Construct: Each reaction consisted of 30 nM enzyme PLK1 kinase domain
testName: In vitro PLK1 assay (IMAP fluorescence polarization kinase assay)
Format: biochemical
conditionDescription: at 10 uM compound
valueKind: inhibition at 10 µM

• Cc1noc(NS(=O)(=O)c2ccc(Nc3cc(-c4cccc5ccccc45)ncn3)cc2)c1C = 58.8%
• Cc1noc(NS(=O)(=O)c2ccc(Nc3cc(-c4cccc(C#N)c4)ncn3)cc2)c1C = 58.5%
• COc1ccccc1-c1cc(Nc2ccc(S(=O)(=O)NC(=O)C(C)C(C)=O)cc2)ncn1 (stereo not drawn) = 59%

----------
HepG2 HepG2 TD50 data
valueKind: HepG2 TD50

* COc1cccc(OC)c1-c1cc(Nc2ccc(S(=O)(=O)Nc3onc(C)c3C)cc2)ncn1 | 9.819
* COc1ccc(-c2cc(Nc3ccc(S(=O)(=O)Nc4onc(C)c4C)cc3)ncn2)c(OC)c1 | 16.1
* COc1ccc(C)cc1-c1cc(Nc2ccc(S(=O)(=O)Nc3onc(C)c3C)cc2)ncn1 | 19.6
